# Test system: ATP;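 also: ATP exposure 15 min at 22 °C before imaging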
# assay explanation: switch fluorescence ratio, 500 uM ATP over buffer (Cy3 cluster intensity, sum of 5 cycles each) (fold (ratio)); higher = stronger signal-on switching upon ATP binding; sequences stand for … in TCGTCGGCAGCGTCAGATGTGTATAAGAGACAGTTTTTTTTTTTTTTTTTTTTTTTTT…TC
# conditions: aptamer strand: ATP DNA aptamer (quencher-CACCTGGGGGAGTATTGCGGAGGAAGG + anchor), 100 nM annealed; ATP concentration: 500 uM
metric name: switch fluorescence ratio
Please reply with the number alone, leaving off any unit.

Per the records, this sequence ( `CCGGTTTTTG` ) has switch fluorescence ratio equal to 1.01

Per the records, this sequence ( `TGCGACTTTG` ) has switch fluorescence ratio equal to 1.03

Per the records, this sequence ( `AGTTCACTGG` ) has switch fluorescence ratio equal to 0.979

Per the records, this sequence ( `ATGGGCGCGC` ) has switch fluorescence ratio equal to 0.982

Per the records, this sequence ( `GCGATGTTTG` ) has switch fluorescence ratio equal to 0.998

###

Kindly supply the reported switch fluorescence ratio values for the records listed here.
# Tested on: ATP;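 also: ATP exposure 15 min at 22 °C before imaging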
# assay explanation: switch fluorescence ratio, 500 uM ATP over buffer (Cy3 cluster intensity, sum of 5 cycles each) (fold (ratio)); higher = stronger signal-on switching upon ATP binding; sequences stand for … in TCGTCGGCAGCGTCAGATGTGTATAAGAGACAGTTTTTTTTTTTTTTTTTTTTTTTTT…TC
# conditions: aptamer strand: ATP DNA aptamer (quencher-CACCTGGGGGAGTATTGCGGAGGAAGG + anchor), 100 nM annealed; ATP concentration: 500 uM
Please reply with the number alone, leaving off any unit.

Per the records, this sequence ( `TTGCGTAGCA` ) has switch fluorescence ratio equal to 0.977

Per the records, this sequence ( `CGAGTGGGGG` ) has switch fluorescence ratio equal to 0.987

Per the records, this sequence ( `GGTATATGTG` ) has switch fluorescence ratio equal to 1

Per the records, this sequence ( `CTTTCTGGGG` ) has switch fluorescence ratio equal to 0.991

Per the records, this sequence ( `TGTTGTAGAA` ) has switch fluorescence ratio equal to 0.973

Per the records, this sequence ( `GGGTTTCACG` ) has switch fluorescence ratio equal to 0.983

Per the records, this sequence ( `TGTTTTTAAG` ) has switch fluorescence ratio equal to 0.99

Per the records, this sequence ( `AAAGTGAGGG` ) has switch fluorescence ratio equal to 0.986

Per the records, this sequence ( `TTTTCCGTTT` ) has switch fluorescence ratio equal to 1.02

Per the records, this sequence ( `CGGTTACGGA` ) has switch fluorescence ratio equal to 0.977

Per the records, this sequence ( `AATATGCTTT` ) has switch fluorescence ratio equal to 1.01

###

Kindly supply the reported switch fluorescence ratio values for the records listed here.
# System: ATP;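 also: ATP exposure 15 min at 22 °C before imaging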
# assay explanation: switch fluorescence ratio, 500 uM ATP over buffer (Cy3 cluster intensity, sum of 5 cycles each) (fold (ratio)); higher = stronger signal-on switching upon ATP binding; sequences stand for … in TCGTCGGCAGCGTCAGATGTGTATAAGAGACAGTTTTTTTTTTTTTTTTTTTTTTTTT…TC
# conditions: aptamer strand: ATP DNA aptamer (quencher-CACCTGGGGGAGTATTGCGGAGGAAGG + anchor), 100 nM annealed; ATP concentration: 500 uM
Please reply with the number alone, leaving off any unit.

Per the records, this sequence ( `TTGGCAGTCG` ) has switch fluorescence ratio equal to 0.998

Per the records, this sequence ( `TTTGTTGTGC` ) has switch fluorescence ratio equal to 1.01

Per the records, this sequence ( `CGGTTAGGTG` ) has switch fluorescence ratio equal to 1.06

Per the records, this sequence ( `CCTTGAGGGA` ) has switch fluorescence ratio equal to 1.06

Per the records, this sequence ( `CTATGAATGG` ) has switch fluorescence ratio equal to 0.975

Per the records, this sequence ( `TGCTTCAGGG` ) has switch fluorescence ratio equal to 1.03

Per the records, this sequence ( `GATGGTGGGG` ) has switch fluorescence ratio equal to 0.977

Per the records, this sequence ( `TGGGGAAGTG` ) has switch fluorescence ratio equal to 0.987

Per the records, this sequence ( `GGCGGCGCTG` ) has switch fluorescence ratio equal to 1.03

Per the records, this sequence ( `AGTTATGCAC` ) has switch fluorescence ratio equal to 1.02

Per the records, this sequence ( `GTTATTATTG` ) has switch fluorescence ratio equal to 1.02

Per the records, this sequence ( `GTAATTTGGG` ) has switch fluorescence ratio equal to 0.982

Per the records, this sequence ( `TTTTGGGA` ) has switch fluorescence ratio equal to 1.01

Per the records, this sequence ( `GATGGGGCTG` ) has switch fluorescence ratio equal to 1.02

Per the records, this sequence ( `AATAGGGATT` ) has switch fluorescence ratio equal to 0.984

Per the records, this sequence ( `GAGTTGGGAA` ) has switch fluorescence ratio equal to 1.04

Per the records, this sequence ( `CTTTTGGTTT` ) has switch fluorescence ratio equal to 0.975

Per the records, this sequence ( `TGCCCGGGGA` ) has switch fluorescence ratio equal to 1

Per the records, this sequence ( `TTAAGATAGT` ) has switch fluorescence ratio equal to 1.02

Per the records, this sequence ( `GGTGACACTT` ) has switch fluorescence ratio equal to 0.996

Per the records, this sequence ( `ATGGGTTGTG` ) has switch fluorescence ratio equal to 1

###

Kindly supply the reported switch fluorescence ratio values for the records listed here.
# System: ATP;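 also: ATP exposure 15 min at 22 °C before imaging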
# assay explanation: switch fluorescence ratio, 500 uM ATP over buffer (Cy3 cluster intensity, sum of 5 cycles each) (fold (ratio)); higher = stronger signal-on switching upon ATP binding; sequences stand for … in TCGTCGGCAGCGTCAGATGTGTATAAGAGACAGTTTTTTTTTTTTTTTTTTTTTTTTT…TC
# conditions: aptamer strand: ATP DNA aptamer (quencher-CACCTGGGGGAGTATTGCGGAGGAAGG + anchor), 100 nM annealed; ATP concentration: 500 uM
Please reply with the number alone, leaving off any unit.

Per the records, this sequence ( `ATTGAATGTA` ) has switch fluorescence ratio equal to 0.98

Per the records, this sequence ( `TTTATGCTGT` ) has switch fluorescence ratio equal to 0.976

Per the records, this sequence ( `GGGAAGAAAT` ) has switch fluorescence ratio equal to 1

Per the records, this sequence ( `TAGCTTGGGA` ) has switch fluorescence ratio equal to 1.01

Per the records, this sequence ( `GCTGTCTATC` ) has switch fluorescence ratio equal to 1.01

Per the records, this sequence ( `TTTTAATCTC` ) has switch fluorescence ratio equal to 0.979

Per the records, this sequence ( `TTCAGAAAGA` ) has switch fluorescence ratio equal to 0.998

Per the records, this sequence ( `TGCGGGCGGC` ) has switch fluorescence ratio equal to 0.98

Per the records, this sequence ( `GTAAGTATGT` ) has switch fluorescence ratio equal to 1.01

Per the records, this sequence ( `CATTGAATGG` ) has switch fluorescence ratio equal to 1

Per the records, this sequence ( `TATCCGTGCT` ) has switch fluorescence ratio equal to 1

Per the records, this sequence ( `CGGTGGTCAG` ) has switch fluorescence ratio equal to 1.01

Per the records, this sequence ( `ATTGAAATGG` ) has switch fluorescence ratio equal to 1.02

Per the records, this sequence ( `CGGCTTGGT` ) has switch fluorescence ratio equal to 1.02

Per the records, this sequence ( `CTATGGGGTT` ) has switch fluorescence ratio equal to 0.977

Per the records, this sequence ( `CGGACTGGTT` ) has switch fluorescence ratio equal to 1.01

Per the records, this sequence ( `TTTGGGGGTG` ) has switch fluorescence ratio equal to 1.02

Per the records, this sequence ( `CGTATAATGT` ) has switch fluorescence ratio equal to 0.996

Per the records, this sequence ( `GGAGCCCCGA` ) has switch fluorescence ratio equal to 0.981

Per the records, this sequence ( `TACTAAGTAT` ) has switch fluorescence ratio equal to 0.996

Per the records, this sequence ( `AGTAGGCAGC` ) has switch fluorescence ratio equal to 1.01

Per the records, this sequence ( `TTATTATCAG` ) has switch fluorescence ratio equal to 1.01

Per the records, this sequence ( `TGGGTCTTTT` ) has switch fluorescence ratio equal to 1.01

Per the records, this sequence ( `AATCAAAAAT` ) has switch fluorescence ratio equal to 0.949

Per the records, this sequence ( `TACCAATTAA` ) has switch fluorescence ratio equal to 1.01

Per the records, this sequence ( `GAGGTTTTAT` ) has switch fluorescence ratio equal to 0.987

Per the records, this sequence ( `TTTCGTGTAG` ) has switch fluorescence ratio equal to 1

Per the records, this sequence ( `ATTATGCTGG` ) has switch fluorescence ratio equal to 0.994

Per the records, this sequence ( `TATTTCTTGG` ) has switch fluorescence ratio equal to 0.968

Per the records, this sequence ( `CCATGCTTGT` ) has switch fluorescence ratio equal to 1.03

Per the records, this sequence ( `ACGAAAATGG` ) has switch fluorescence ratio equal to 1.05

Per the records, this sequence ( `TGATACAAGC` ) has switch fluorescence ratio equal to 1.05

Per the records, this sequence ( `TATTTGGACT` ) has switch fluorescence ratio equal to 1.04

Per the records, this sequence ( `ATAGCCCGCT` ) has switch fluorescence ratio equal to 1.03

Per the records, this sequence ( `GTGAACAGCA` ) has switch fluorescence ratio equal to 1.01

Per the records, this sequence ( `ACAGGGCTAT` ) has switch fluorescence ratio equal to 1.02

Per the records, this sequence ( `AAGGTGGGGA` ) has switch fluorescence ratio equal to 1.02

Per the records, this sequence ( `GGGCTTATGA` ) has switch fluorescence ratio equal to 1.02

Per the records, this sequence ( `ACTTGCCGTA` ) has switch fluorescence ratio equal to 0.992

Per the records, this sequence ( `CGCTCGTTGT` ) has switch fluorescence ratio equal to 0.956

Per the records, this sequence ( `GAAATAGGTA` ) has switch fluorescence ratio equal to 0.988

Per the records, this sequence ( `ATGTTGAAGC` ) has switch fluorescence ratio equal to 0.962

Per the records, this sequence ( `GAGGGGATTG` ) has switch fluorescence ratio equal to 0.986

Per the records, this sequence ( `GAGTGACTTG` ) has switch fluorescence ratio equal to 1.02

Per the records, this sequence ( `GTGTTTGACA` ) has switch fluorescence ratio equal to 0.96

Per the records, this sequence ( `AGATAACTCT` ) has switch fluorescence ratio equal to 1.01

Per the records, this sequence ( `AGGGTCGGTG` ) has switch fluorescence ratio equal to 0.98

Per the records, this sequence ( `TTGGTCCCGA` ) has switch fluorescence ratio equal to 1

Per the records, this sequence ( `ATACTTTTGC` ) has switch fluorescence ratio equal to 0.952

Per the records, this sequence ( `TTTTCGTATG` ) has switch fluorescence ratio equal to 1

Per the records, this sequence ( `GAGGGCTGAG` ) has switch fluorescence ratio equal to 0.985

Per the records, this sequence ( `ACTTGGGTAG` ) has switch fluorescence ratio equal to 0.993

Per the records, this sequence ( `AGGTTCGATC` ) has switch fluorescence ratio equal to 1.02

Per the records, this sequence ( `TTTTGATATA` ) has switch fluorescence ratio equal to 0.999

Per the records, this sequence ( `TTTCGAGAAG` ) has switch fluorescence ratio equal to 1.05

Per the records, this sequence ( `ATAAGCACTT` ) has switch fluorescence ratio equal to 1.22

Per the records, this sequence ( `ATCACTGGGT` ) has switch fluorescence ratio equal to 0.998

Per the records, this sequence ( `AAATGACGGG` ) has switch fluorescence ratio equal to 1.01

Per the records, this sequence ( `TTAGCTAGTT` ) has switch fluorescence ratio equal to 0.987

Per the records, this sequence ( `TGTATAGGGT` ) has switch fluorescence ratio equal to 1.01

Per the records, this sequence ( `TAAGACGGTT` ) has switch fluorescence ratio equal to 1.01

Per the records, this sequence ( `GGTCTTGTTT` ) has switch fluorescence ratio equal to 0.989

Per the records, this sequence ( `ACGTGGGTCT` ) has switch fluorescence ratio equal to 1.01

Per the records, this sequence ( `ACGGTGAATG` ) has switch fluorescence ratio equal to 1

Per the records, this sequence ( `TAGCTAGATG` ) has switch fluorescence ratio equal to 1.02

Per the records, this sequence ( `GCATGATCAA` ) has switch fluorescence ratio equal to 0.997

Per the records, this sequence ( `GGTCCAGGAT` ) has switch fluorescence ratio equal to 1.02

Source listed as the supplement of paper PMC10126150.
